- experimental_target: DNA gyrase subunit B (Staphylococcus aureus)
- Sequence (P0A0K8 whole entry): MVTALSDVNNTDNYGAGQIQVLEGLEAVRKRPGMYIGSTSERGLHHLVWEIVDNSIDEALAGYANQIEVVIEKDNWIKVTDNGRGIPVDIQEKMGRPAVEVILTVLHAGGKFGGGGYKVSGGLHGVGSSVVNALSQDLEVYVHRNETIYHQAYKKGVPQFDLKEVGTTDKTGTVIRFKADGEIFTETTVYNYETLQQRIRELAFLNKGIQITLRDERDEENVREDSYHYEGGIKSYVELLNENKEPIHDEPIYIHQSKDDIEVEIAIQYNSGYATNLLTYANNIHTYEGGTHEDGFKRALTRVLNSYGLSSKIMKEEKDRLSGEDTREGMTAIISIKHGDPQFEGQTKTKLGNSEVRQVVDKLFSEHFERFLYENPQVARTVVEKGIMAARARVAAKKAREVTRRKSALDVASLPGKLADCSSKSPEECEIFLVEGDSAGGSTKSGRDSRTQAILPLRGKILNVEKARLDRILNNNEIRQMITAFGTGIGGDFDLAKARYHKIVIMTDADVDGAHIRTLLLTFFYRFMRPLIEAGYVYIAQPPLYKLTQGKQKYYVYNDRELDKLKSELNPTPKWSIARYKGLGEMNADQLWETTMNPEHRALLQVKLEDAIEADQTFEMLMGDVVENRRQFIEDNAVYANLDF
- run_description: Inhibition of Staphylococcus aureus DNA GyraseB ATPase activity using linear pBR322 DNA as substrate incubated for 30 mins by fluorescence polarization analysis
experimental_endpoint: pIC50
Please express pIC50 as -log10 of the molar concentration.

Looking up CCNC(=O)Nc1cn(-c2ncc(OC)cn2)c2cc(-c3cccnc3)cnc12 , I see its pIC50 listed as 6.84

Recorded result, CCNC(=O)Nc1cn(-c2nccc(C)n2)c2cc(-c3cccnc3)cnc12 , pIC50: 6.85

Query CCNC(=O)Nc1cn(-c2ncc(Br)cn2)c2cc(-c3cccnc3)cnc12 yields pIC50 of 6.89
